- Test system: Staphylococcus aureus
- EXPERIMENTAL_DETAILS: Potency index, ratio of vancomycin MIC to test compound MIC for antibacterial activity against vancomycin-intermediate Staphylococcus aureus ATCC NRS1 assessed as inhibition of bacterial growth by standard broth microdilution susceptibility method
- Assay type: functional
MEASUREMENT_TYPE: Ratio

compound=CN[C@H](CC(C)C)C(=O)N[C@H]1C(=O)N[C@@H](CC(N)=O)C(=O)N[C@H]2C(=O)N[C@H]3C(=O)N[C@H](C(=O)N[C@H](C(=O)NCCSSCCNC(=O)CCSC(c4ccccc4)(c4ccccc4)c4ccccc4)c4cc(O)cc(O)c4-c4cc3ccc4O)[C@H](O)c3ccc(c(Cl)c3)Oc3cc2cc(c3O[C@@H]2O[C@H](CO)[C@@H](O)[C@H](O)[C@H]2O[C@H]2C[C@](C)(N)[C@H](O)[C@H](C)O2)Oc2ccc(cc2Cl)[C@H]1O reported=8
compound=CCCCCCSSCCNC(=O)[C@H]1NC(=O)[C@H]2NC(=O)[C@H](NC(=O)[C@@H]3NC(=O)[C@H](CC(N)=O)NC(=O)[C@H](NC(=O)[C@@H](CC(C)C)NC)[C@H](O)c4ccc(c(Cl)c4)Oc4cc3cc(c4O[C@@H]3O[C@H](CO)[C@@H](O)[C@H](O)[C@H]3O[C@H]3C[C@](C)(N)[C@H](O)[C@H](C)O3)Oc3ccc(cc3Cl)[C@H]2O)c2ccc(O)c(c2)-c2c(O)cc(O)cc21 reported=16
compound=CCCCCCCCCCCSSCCNC(=O)[C@H]1NC(=O)[C@H]2NC(=O)[C@H](NC(=O)[C@@H]3NC(=O)[C@H](CC(N)=O)NC(=O)[C@H](NC(=O)[C@@H](CC(C)C)NC)[C@H](O)c4ccc(c(Cl)c4)Oc4cc3cc(c4O[C@@H]3O[C@H](CO)[C@@H](O)[C@H](O)[C@H]3O[C@H]3C[C@](C)(N)[C@H](O)[C@H](C)O3)Oc3ccc(cc3Cl)[C@H]2O)c2ccc(O)c(c2)-c2c(O)cc(O)cc21 reported=16
compound="CN[C@H](CC(C)C)C(=O)N[C@H]1C(=O)N[C@@H](CC(N)=O)C(=O)N[C@H]2C(=O)N[C@H]3C(=O)N[C@H](C(=O)N[C@H](C(=O)NCCCCCNC(=O)CCCCC4CCSS4)c4cc(O)cc(O)c4-c4cc3ccc4O)[C@H](O)c3ccc(c(Cl)c3)Oc3cc2cc(c3O[C@@H]2O[C@H](CO)[C@@H](O)[C@H](O)[C@H]2O[C@H]2C[C@](C)(N)[C@H](O)[C@H](C)O2)Oc2ccc(cc2Cl)[C@H]1O (some centres undefined)" reported=4

---

- Tested on: Clostridioides difficile
- EXPERIMENTAL_DETAILS: Antibacterial activity against Clostridium difficile ATCC 43255 assessed as inhibition of bacterial growth by standard broth microdilution susceptibility method
- Assay type: functional
MEASUREMENT_TYPE: MIC (µg/mL)

compound="CN[C@H](CC(C)C)C(=O)N[C@H]1C(=O)N[C@@H](CC(N)=O)C(=O)N[C@H]2C(=O)N[C@H]3C(=O)N[C@H](C(=O)N[C@H](C(=O)O)c4cc(O)cc(O)c4-c4cc3ccc4O)[C@H](O)c3ccc(c(Cl)c3)Oc3cc2cc(c3O[C@@H]2O[C@H](CO)[C@@H](O)[C@H](O)[C@H]2O[C@H]2C[C@](C)(N)[C@H](O)[C@H](C)O2)Oc2ccc(cc2Cl)[C@H]1O [VANCOMYCIN]" relation== reported=0.12
compound=CCCCCCSSCCNC(=O)[C@H]1NC(=O)[C@H]2NC(=O)[C@H](NC(=O)[C@@H]3NC(=O)[C@H](CC(N)=O)NC(=O)[C@H](NC(=O)[C@@H](CC(C)C)NC)[C@H](O)c4ccc(c(Cl)c4)Oc4cc3cc(c4O[C@@H]3O[C@H](CO)[C@@H](O)[C@H](O)[C@H]3O[C@H]3C[C@](C)(N)[C@H](O)[C@H](C)O3)Oc3ccc(cc3Cl)[C@H]2O)c2ccc(O)c(c2)-c2c(O)cc(O)cc21 relation== reported=0.5
compound=CN[C@H](CC(C)C)C(=O)N[C@H]1C(=O)N[C@@H](CC(N)=O)C(=O)N[C@H]2C(=O)N[C@H]3C(=O)N[C@H](C(=O)N[C@H](C(=O)NCCSSc4ccccn4)c4cc(O)cc(O)c4-c4cc3ccc4O)[C@H](O)c3ccc(c(Cl)c3)Oc3cc2cc(c3O[C@@H]2O[C@H](CO)[C@@H](O)[C@H](O)[C@H]2O[C@H]2C[C@](C)(N)[C@H](O)[C@H](C)O2)Oc2ccc(cc2Cl)[C@H]1O relation== reported=0.5
compound=CN[C@H](CC(C)C)C(=O)N[C@H]1C(=O)N[C@@H](CC(N)=O)C(=O)N[C@H]2C(=O)N[C@H]3C(=O)N[C@H](C(=O)N[C@H](C(=O)NCCCCCCCCS)c4cc(O)cc(O)c4-c4cc3ccc4O)[C@H](O)c3ccc(c(Cl)c3)Oc3cc2cc(c3O[C@@H]2O[C@H](CO)[C@@H](O)[C@H](O)[C@H]2O[C@H]2C[C@](C)(N)[C@H](O)[C@H](C)O2)Oc2ccc(cc2Cl)[C@H]1O relation== reported=4
compound=CN[C@H](CC(C)C)C(=O)N[C@H]1C(=O)N[C@@H](CC(N)=O)C(=O)N[C@H]2C(=O)N[C@H]3C(=O)N[C@H](C(=O)N[C@H](C(=O)NCCSSCC[N+](C)(C)C)c4cc(O)cc(O)c4-c4cc3ccc4O)[C@H](O)c3ccc(c(Cl)c3)Oc3cc2cc(c3O[C@@H]2O[C@H](CO)[C@@H](O)[C@H](O)[C@H]2O[C@H]2C[C@](C)(N)[C@H](O)[C@H](C)O2)Oc2ccc(cc2Cl)[C@H]1O relation=≤ reported=0.015

---

Reported inhibition (INH) is given for each of the following compounds.
- Tested on: Enterococcus faecalis
- EXPERIMENTAL_DETAILS: Antibacterial activity against VanB-resistant Enterococcus faecalis ATCC 51299 assessed as inhibition of bacterial growth in BHIG medium incubated for 24 hrs by resazurin assay
- Format: functional
MEASUREMENT_TYPE: inhibition (INH) (%)

compound="CN[C@H](CC(C)C)C(=O)N[C@H]1C(=O)N[C@@H](CC(N)=O)C(=O)N[C@H]2C(=O)N[C@H]3C(=O)N[C@H](C(=O)N[C@H](C(=O)NCCSSCCNC(=O)CCCCC4CCSS4)c4cc(O)cc(O)c4-c4cc3ccc4O)[C@H](O)c3ccc(c(Cl)c3)Oc3cc2cc(c3O[C@@H]2O[C@H](CO)[C@@H](O)[C@H](O)[C@H]2O[C@H]2C[C@](C)(N)[C@H](O)[C@H](C)O2)Oc2ccc(cc2Cl)[C@H]1O (some centres not stated)" measurement_type="inhibition (INH)" reported=100
compound="CN[C@H](CC(C)C)C(=O)N[C@H]1C(=O)N[C@@H](CC(N)=O)C(=O)N[C@H]2C(=O)N[C@H]3C(=O)N[C@H](C(=O)N[C@H](C(=O)NCCCCCNC(=O)CCCCC4CCSS4)c4cc(O)cc(O)c4-c4cc3ccc4O)[C@H](O)c3ccc(c(Cl)c3)Oc3cc2cc(c3O[C@@H]2O[C@H](CO)[C@@H](O)[C@H](O)[C@H]2O[C@H]2C[C@](C)(N)[C@H](O)[C@H](C)O2)Oc2ccc(cc2Cl)[C@H]1O (some centres not stated)" measurement_type="inhibition (INH)" reported=100

---

- Test system: Enterococcus faecium
- EXPERIMENTAL_DETAILS: Antibacterial activity against VanA-resistant Enterococcus faecium MMX0485 assessed as inhibition of bacterial growth by standard broth microdilution susceptibility method
- Type: functional
So basically, if MIC comes in under 2 µg/mL it's yes (1), and if it's 2 µg/mL or more it's no (0).

compound=CN[C@H](CC(C)C)C(=O)N[C@H]1C(=O)N[C@@H](CC(N)=O)C(=O)N[C@H]2C(=O)N[C@H]3C(=O)N[C@H](C(=O)N[C@H](C(=O)NCCSSCCN)c4cc(O)cc(O)c4-c4cc3ccc4O)[C@H](O)c3ccc(c(Cl)c3)Oc3cc2cc(c3O[C@@H]2O[C@H](CO)[C@@H](O)[C@H](O)[C@H]2O[C@H]2C[C@](C)(N)[C@H](O)[C@H](C)O2)Oc2ccc(cc2Cl)[C@H]1O class_name="no (0)"
compound=CN[C@H](CC(C)C)C(=O)N[C@H]1C(=O)N[C@@H](CC(N)=O)C(=O)N[C@H]2C(=O)N[C@H]3C(=O)N[C@H](C(=O)N[C@H](C(=O)NCCSSCCNC(=O)CCS)c4cc(O)cc(O)c4-c4cc3ccc4O)[C@H](O)c3ccc(c(Cl)c3)Oc3cc2cc(c3O[C@@H]2O[C@H](CO)[C@@H](O)[C@H](O)[C@H]2O[C@H]2C[C@](C)(N)[C@H](O)[C@H](C)O2)Oc2ccc(cc2Cl)[C@H]1O class_name="no (0)"
compound=CCCCCCSSCCNC(=O)[C@H]1NC(=O)[C@H]2NC(=O)[C@H](NC(=O)[C@@H]3NC(=O)[C@H](CC(N)=O)NC(=O)[C@H](NC(=O)[C@@H](CC(C)C)NC)[C@H](O)c4ccc(c(Cl)c4)Oc4cc3cc(c4O[C@@H]3O[C@H](CO)[C@@H](O)[C@H](O)[C@H]3O[C@H]3C[C@](C)(N)[C@H](O)[C@H](C)O3)Oc3ccc(cc3Cl)[C@H]2O)c2ccc(O)c(c2)-c2c(O)cc(O)cc21 class_name="no (0)"
compound="CN[C@H](CC(C)C)C(=O)N[C@H]1C(=O)N[C@@H](CC(N)=O)C(=O)N[C@H]2C(=O)N[C@H]3C(=O)N[C@H](C(=O)N[C@H](C(=O)O)c4cc(O)cc(O)c4-c4cc3ccc4O)[C@H](O)c3ccc(c(Cl)c3)Oc3cc2cc(c3O[C@@H]2O[C@H](CO)[C@@H](O)[C@H](O)[C@H]2O[C@H]2C[C@](C)(N)[C@H](O)[C@H](C)O2)Oc2ccc(cc2Cl)[C@H]1O [VANCOMYCIN]" class_name="no (0)"
compound=CN[C@H](CC(C)C)C(=O)N[C@H]1C(=O)N[C@@H](CC(N)=O)C(=O)N[C@H]2C(=O)N[C@H]3C(=O)N[C@H](C(=O)N[C@H](C(=O)NCCSSCC[N+](C)(C)C)c4cc(O)cc(O)c4-c4cc3ccc4O)[C@H](O)c3ccc(c(Cl)c3)Oc3cc2cc(c3O[C@@H]2O[C@H](CO)[C@@H](O)[C@H](O)[C@H]2O[C@H]2C[C@](C)(N)[C@H](O)[C@H](C)O2)Oc2ccc(cc2Cl)[C@H]1O class_name="no (0)"
compound=CN[C@H](CC(C)C)C(=O)N[C@H]1C(=O)N[C@@H](CC(N)=O)C(=O)N[C@H]2C(=O)N[C@H]3C(=O)N[C@H](C(=O)N[C@H](C(=O)NCCCS)c4cc(O)cc(O)c4-c4cc3ccc4O)[C@H](O)c3ccc(c(Cl)c3)Oc3cc2cc(c3O[C@@H]2O[C@H](CO)[C@@H](O)[C@H](O)[C@H]2O[C@H]2C[C@](C)(N)[C@H](O)[C@H](C)O2)Oc2ccc(cc2Cl)[C@H]1O class_name="yes (1)"
compound="CN[C@H](CC(C)C)C(=O)N[C@H]1C(=O)N[C@@H](CC(N)=O)C(=O)N[C@H]2C(=O)N[C@H]3C(=O)N[C@H](C(=O)N[C@H](C(=O)NCCCCCNC(=O)CCCCC4CCSS4)c4cc(O)cc(O)c4-c4cc3ccc4O)[C@H](O)c3ccc(c(Cl)c3)Oc3cc2cc(c3O[C@@H]2O[C@H](CO)[C@@H](O)[C@H](O)[C@H]2O[C@H]2C[C@](C)(N)[C@H](O)[C@H](C)O2)Oc2ccc(cc2Cl)[C@H]1O (stereo not given in full)" class_name="no (0)"
compound=CN[C@H](CC(C)C)C(=O)N[C@H]1C(=O)N[C@@H](CC(N)=O)C(=O)N[C@H]2C(=O)N[C@H]3C(=O)N[C@H](C(=O)N[C@H](C(=O)NCCCCCS)c4cc(O)cc(O)c4-c4cc3ccc4O)[C@H](O)c3ccc(c(Cl)c3)Oc3cc2cc(c3O[C@@H]2O[C@H](CO)[C@@H](O)[C@H](O)[C@H]2O[C@H]2C[C@](C)(N)[C@H](O)[C@H](C)O2)Oc2ccc(cc2Cl)[C@H]1O class_name="yes (1)"
